# Tested on: COLO 205 colon
# experiment: NCI-60 one-dose screen, 48 h (100 = growth as untreated, 0 = no growth, -100 = all killed)
# condition_set: 10 µM unless noted
Compounds without any hit were thinned out: in the full panel of roughly 83,000, 20% have a hit.
measurement_label: growth (%)
Give just the number in %; leave the unit off.

- compound: "COc1cc2c(cc1OC)-c1c3c(cc4c1[C@@H](C2)N(C)CC4)OCO3"
  target_entity: "COLO 205 colon"
  measure_unit: "%"
  growth: 31.4

# query: growth of entry "CC[C@H](C)[C@H](NC(=O)[C@H]1CCCCN1C)C(=O)N(C)[C@H](C(=O)NC12CC(C(=O)N[C@@H](Cc3ccccc3)C[C@H](C)C(=O)OC)(C1)C2)C(C)C"
110

Consider next the compound "N#CCc1ccc(CC#N)cc1" in the same way.
111

Consider next the compound "C=CC[PH+](c1ccccc1)c1ccccc1.C=CC[PH+](c1ccccc1)c1ccccc1.[Pt+2].[S-]c1ncccn1.[S-]c1ncccn1" in the same way.
-11.5

Consider next the compound O=C1c2ccccc2C(=O)N1N1CC1c1ccccc1 (stereo not given) in the same way.
101

Consider next the compound "O=C(Cc1ccccc1)c1ccccc1" in the same way.
102

Consider next the compound "Oc1cc(Cl)ccc1Oc1ccc(Cl)cc1Cl" in the same way.
105

Consider next the compound "CNC(=O)Oc1ccc(Cl)cc1SSc1cc(Cl)ccc1OC(=O)NC" in the same way.
110

Consider next the compound C[N+]12CCC34C5=CC(=O)C(=O)C=C5[N+]5(C)C(=O)CC6OCC=C(C1)C(CC32)C6C45 (stereo not given) in the same way.
101

Consider next the compound "COc1ccc(O)c2c(=O)c3c(OC)cc4c(c3oc12)[C@@H]1C=CO[C@@H]1O4" in the same way.
36.1

Origin of measurements: PubChem BioAssay (NCI)
